Test system: ALK1-mediated SMAD1/5 phosphorylation in HUVEC cells
assay_procedure: Cell-based immunofluorescence assay for ALK1-mediated SMAD1/5 phosphorylation in HUVEC cells
assay_conditions: Homo sapiens, 1.5 ng/ml BMP-9 with compound for 2 h, % nuclei with pSMAD1/5 signal, read-out: Smad 1/5 IC50
Counter-ions that a name gives are not always drawn.
Label key: Met means IC50 under 3 µM; Not met means IC50 of 3 µM or more.

Consider the compound "O=c1[nH]cc(-c2ccnc3[nH]ccc23)cc1-c1nc2cc(N3CC4CCC(C3)N4)ccc2[nH]1" . Is its IC50 strictly less than 3 µM?
Not met

Others:
Hello, is IC50 of the following compound strictly smaller than 3 µM? "CN1CCN(c2ccc3[nH]c(-c4cc(-c5ccnc6ccccc56)c[nH]c4=O)nc3c2)CC1"
Not met

Bench note: check whether O=c1[nH]cc(-c2cc(CO)ccc2Cl)cc1-c1nc2cc(N3CCNCC3)ccc2[nH]1 [Compound A22, dihydrochloride] shows IC50 below 3 µM
Not met

Ref: patent US10179777B2
